Test system: HeLa
ASSAY_SUMMARY: Primary qHTS to identify gynecologic anti-cancer compounds using libraries of approved drugs and bioactive compounds (AID 1345084); also: % is scaled to controls: 0 for no effect and ±100 for the full control effect; nearly all actives have a fitted effect of over 55% in size
EXPERIMENTAL_CONDITIONS: Gynecologic cancer cell panel viability, ATPlite luminescence, 48 h; series mostly up to 57.5 µM
Inconclusive results are not listed. Active and inactive are the calls of the source. Calls follow the shape of the dose curve; as a rule, active = well fitted cell-killing curve with a large enough effect; inconclusive = small, poorly fitted or top-dose-only effect, or effect the other way; inactive = flat fitted curve, though single readings scatter.
READOUT_LABEL: activity change, negative = cytotoxicity

Worked examples, 4 compounds total:
- C=C(C)[C@@H]1CC[C@]2(C)CC[C@]3(C)C(CCC4[C@@]5(C)CC[C@H](O)C(C)(C)C5CC[C@]43C)C12 (stereo not given in full): inactive
- C[C@@H]1O[C@@H](O[C@H]2[C@H](O)[C@@H](O[C@@H]3O[C@H](CO)[C@H](O)[C@H](O)[C@H]3O)[C@H](O[C@H]3CC[C@@]4(C)C(CC[C@]5(C)C4CC=C4[C@@H]6CC(C)(C)CC[C@]6(C(=O)O[C@@H]6O[C@H](CO)[C@@H](O)[C@H](O)[C@H]6O)CC[C@]45C)C3(C)C)O[C@@H]2C(=O)O)[C@H](O)[C@H](O)[C@H]1O (stereo not given in full): 1.11% [at 11.6 µM] (inactive)
- CC1OC(OC2C(OC(=O)[C@]34CCC(C)(C)C[C@H]3C3=CCC5[C@@]6(C)CC[C@H](OC7OC(C(=O)O)C(O)C(O)C7O)C(C)(C)C6CC[C@@]5(C)[C@]3(C)CC4O)OC(CO)C2O)C(O)C(O)C1OC1OCC(O)C(O)C1O (stereo not given in full): 8.57% [at 11.6 µM] (inactive)
- CC(C)[C@@H](C(=O)O)N1Cc2c(cc(O)c3c2O[C@]2(C3)[C@H](C)CCC3C(C)(C)[C@H](O)[C@H](O)C[C@@]32C)C1=O (stereo not given in full): inactive

Attention now shifts to the item below.
Req: Query: activity change, negative = cytotoxicity; subject: C[C@@H]1O[C@@H](OC(=O)Cc2ccccc2)[C@H](O)[C@H](O)[C@H]1O
Resp: inactive

====

For each entry below, report its activity value.
TARGET_ENTITY: Nicotinamide N-methyltransferase (Homo sapiens)
ASSAY_SUMMARY: Confirmatory Screen for Target Class Profiling of Small Molecule Inhibitors of Methyltransferases (AID 1745852)
EXPERIMENTAL_CONDITIONS: MTase-Glo luminescence, SAH detection, recombinant enzyme; measured here: NNMT max response; stronger effect = lower value
Where a SMILES comes first, the peptide text is derived from it. The star is where a group is joined. AMC = Cc1cc(=O)oc2cc(N*)ccc12; Cbz = O=C(OCc1ccccc1)*
Answers are plain numbers, in %.

Worked examples, 3 molecules total:
• Cc1cc(=O)oc2cc(NC(=O)[C@H](CCC(=O)O)NC(=O)[C@H](CC(C)C)NC(=O)[C@H](CC(C)C)NC(=O)OCc3ccccc3)ccc12 (Cbz-Leu-Leu-Glu-{AMC}) = -71.3
• C=C1C(=O)O[C@@H]2CC(C)=C([C@@H](C)CCCOC(C)=O)[C@@H](O)[C@H]12 = -0.922
• CC1(CO)CC(O)C2(C)CCC3(C)C(=CCC4C5(C=O)CCC(OC6OC(C(=O)O)C(O)C(O)C6OC6OC(C(=O)O)C(O)C(O)C6O)C(C)(C)C5CCC43C)C2C1 (stereo unspecified) = -0.108

Okay, here is my list. What is activity for each of these?
1. COCc1c(O)c(C(=O)O)c(C)c2c1OC(=O)c1c(C)cc(O)c(CO)c1O2
2. C[C@@H]1O[C@@H](OC[C@H]2O[C@@H](OCc3ccccc3)[C@H](O)[C@@H](O)[C@@H]2O)[C@H](O)[C@H](O)[C@H]1O
3. COc1c2c(c(C)c3c1C(=O)OC3)OC1(C)CC(O)C34OC(OC)(CC(O)C3(C)C1C2)OC4(C)C (stereo unspecified)

Resp:
-3.54
-3.31
-8.14

====

System: KB-3-1
ASSAY_SUMMARY: Cytotoxic Profiling of Annotated Libraries Using Quantitative High-Throughput Screening (AID 1296008); also: % is scaled to controls: 0 for no effect and ±100 for the full control effect; nearly all actives have a fitted effect of over 60% in size
EXPERIMENTAL_CONDITIONS: Five cell lines viability, CellTiter-Glo ATP luminescence, 48-72 h; stronger effect = lower value
Procedure: Cell-based phenotypic screening is a commonly used approach to discover biological pathways, novel drug targets, chemical probes and high-quality hit-to-lead molecules. […] A pintool (Kalypsys) was used to transfer 23 nL of compound solution to the 1536-well assay plates. […] Plates were left at room temperature for 10 min before imaging the ATP-coupled luminescence using a ViewLux microplate imager (PerkinElmer, Waltham, MA).
Results filed as inconclusive are left out.
READOUT_LABEL: max response (%)
Numbers only, in %.

Okay, here is my list. What is max response for each of these?
1. O=C(O)CCc1cccc(O)c1O[C@@H]1O[C@H](CO)[C@@H](O)[C@H](O)[C@H]1O
2. C[C@@H]1CCC2C(C)(C)[C@H](O)[C@H](O)C[C@]2(C)[C@@]12Cc1c(O)cc3c(c1O2)CN(CCCC(=O)O)C3=O (some centres not stated)
3. C/C=C(\C)C(=O)OC1C(C)C2(O)C3C=C(C)C(=O)C3CC(CO)=CC2C2C(C)(C)C12OC(C)=O (configuration not stated)
4. COC(=O)C1=COC(O[C@@H]2O[C@H](CO)[C@@H](O)[C@H](O)[C@H]2O)C2C(C)C(=O)CC12 (some centres not stated)
5. CCc1cc(CC[C@]2(C3CCCC3)CC(O)=C(Cc3nc4nc(C)cc(C)n4n3)C(=O)O2)cc(CC)n1

Resp:
1: 8.15; 2: 3.58; 3: 2.42; 4: 2.31; 5: -0.912

Okay, here is my list. What is max response for each of these?
1. COC(=O)C1=CO[C@@H](O[C@@H]2O[C@H](CO)[C@@H](O)[C@H](O)[C@H]2O)[C@@H]2[C@@H](C(=O)O)CC[C@H]12
2. CC(=O)OC[C@]12[C@@H](OC(=O)c3ccoc3)C[C@@H]3[C@@H](OC(C)=O)[C@]1(OC3(C)C)[C@@](C)(O)C[C@H](OC(=O)c1ccoc1)[C@@H]2OC(=O)c1ccoc1

Resp:
[3.46, 2.58]

====

TARGET_ENTITY: Glutathione peroxidase 1 (Homo sapiens) (UniProt P07203)
Sequence (P07203 whole entry, looked up): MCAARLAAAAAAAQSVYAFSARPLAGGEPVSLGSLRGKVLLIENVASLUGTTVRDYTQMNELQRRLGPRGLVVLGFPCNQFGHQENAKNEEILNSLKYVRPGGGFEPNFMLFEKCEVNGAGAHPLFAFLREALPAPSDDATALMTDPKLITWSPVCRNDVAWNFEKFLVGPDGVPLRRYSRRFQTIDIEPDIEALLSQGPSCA
ASSAY_SUMMARY: Primary qHTS Assay for Inhibitors of Recombinant Selenoprotein Glutathione Peroxidase 1 (GPX1) (AID 1845191); also: nearly all actives have a fitted effect of over 65% in size
EXPERIMENTAL_CONDITIONS: recombinant GPX1, GR-coupled NADPH fluorescence, 15 min; series mostly up to 27.7 µM
Results filed as inconclusive are left out. Calls of active or inactive are those of the source. Calls follow the shape of the dose curve; as a rule, active = well fitted inhibition curve with a large enough effect; inconclusive = small, poorly fitted or top-dose-only effect; inactive = flat fitted curve, though single readings scatter.
READOUT_LABEL: outcome

Worked examples, 5 compounds total:
• CC(C)C1(O)NC(=O)C(CC2(O)c3ccccc3N3C(=O)C(C)(C)NC32)n2c1nc1ccccc1c2=O (configuration not stated) = inactive
• C=CCc1cc(OC)c(OC(C)C(O)c2ccc(O)c(OC)c2)c(OC)c1 (configuration not stated) = inactive
• CC1(C)CC=C(C#Cc2ccccc2)c2cc(/C=C/c3ccc(C(=O)O)cc3)ccc21 = inactive
• O=C(O)c1cccc(C(=O)CCC2OC(n3cnc4c(=O)[nH]cnc43)C(O)C2O)c1 (configuration not stated) = inactive
• COc1ccc(NC(=O)c2ccc(-c3ccc(C(N)=O)cc3C)cc2)cc1N1CCN(C)CC1 = inactive

Okay, here is my list. What is outcome for each of these?
1. CC(=O)NC1C(OC2CCC3(C)C(CCC4(C)C3CC=C3C5CC(C)(C)CCC5(C(=O)O)C(O)CC34C)C2(C)C)OC(CO)C(O)C1O (configuration not stated)
2. CC(C)=CCC[C@](C)(O[C@@H]1O[C@H](CO)[C@@H](O)[C@H](O)[C@H]1O)[C@H]1CC[C@]2(C)[C@@H]1[C@H](O)CC1[C@@]3(C)CC[C@H](O)C(C)(C)C3[C@@H](O[C@@H]3O[C@H](CO)[C@@H](O)[C@H](O)[C@H]3O[C@@H]3O[C@@H](C)[C@H](O)[C@@H](O)[C@H]3O)C[C@]12C (some centres not stated)

Resp:
inactive
inactive

====

ASSAY_SUMMARY: Tertiary RLuc qRT-PCR qHTS assay for Zika virus inhibitors (AID 1347169); also: nearly all actives have a fitted effect of over 55% in size
EXPERIMENTAL_CONDITIONS: infected Vero cells, reporter luminescence, 48-72 h; series mostly up to 45.9 µM
Protocol: Avindra Nath, Ph.D., National Institute of Neurological Disorders and Stroke (NINDS), Bethesda, MD Radhakrishnan Padmanabhan, Ph.D., Georgetown University (GU), Washington D.C. […] For a follow-up assay, we adapted a high throughput orthogonal assay in 1536-well plate format to use the recombinant virus ZIKV-RLuc, in Vero cells. […] The luminescence signal was measured after 1-1.5 hrs exposure to substrate in ViewLux reader.
Inconclusive results are not listed. The source made the active and inactive calls. Calls come from the whole dose curve; as a rule, active = well fitted inhibition curve with a large enough effect; inconclusive = small, poorly fitted or top-dose-only effect; inactive = no such curve, though single readings can be large or run the other way.
Assign a class; possible classes are Y = active, N = inactive

Please review the following examples before continuing.
- C=C1CCC2C(C)(C)CCC[C@]2(C)[C@H]1CC/C(C)=C/C(=O)O (some centres undefined): N
- O=C(O)C1(c2ccc(-c3ccc(Cl)c(Cl)c3)c(F)c2)CC1: N
- CCC(C)/C=C(C)/C=C/C1=CC2=CC(=O)C(C)(O)C(OC(C)=O)C2CO1 (centres undefined): N
- COc1ccc(C2C(C(=O)O)C(C(=O)O)C2c2ccc(OC)cc2O[C@@H]2O[C@H](CO)[C@@H](O)[C@H](O)[C@H]2O)c(O[C@@H]2O[C@H](CO)[C@@H](O)[C@H](O)[C@H]2O)c1 (some centres undefined): N

Req: What outcome does the record of this test show for CC(=O)OC12CC(C)C(OC(=O)c3ccccc3)C1/C=C(/C)C(OC(=O)c1ccccc1)CC(=O)C(C)(C)/C=C/C(C)C2=O (centres undefined) ?
Resp: Y

Req: Next compound: CC1(C)CC=C(c2cnc3ccccc3c2)c2cc(C(=O)Nc3ccc(C(=O)O)cc3)ccc21
Resp: N

Req: Next compound: O=C(Nc1ccccc1)Nc1ccc(-c2ccc(C(=O)C3CCCC3C(=O)O)cc2)cc1 (centres undefined)
Resp: N

Req: Next compound: O=C(O)CC/C=C\C[C@H]1CO[C@@H](c2ccccc2Cl)O[C@H]1c1ccccc1O
Resp: N

Req: Next compound: CC1=C2CC3C(CCC3(C)O)C(C)(O)CC2OC1=O (centres undefined)
Resp: N

Req: Next compound: O=C(/C=C/c1ccccc1)OC[C@H]1O[C@@H](OC(=O)c2cc(O)c(O)c(O)c2)[C@H](O)[C@@H](O)[C@@H]1O
Resp: N
